Catalogue of tissue uptake at 4 h values
Test: in vivo
Details: CD1 nude, mouse, 0.5 nmol/mouse, total radioactivity, Liver uptake
Field: numeric (%ID/g). Do not append units.

Cc1ccc(CCCC(=O)NCCOCCOCCOCCC(=O)NCCCC[C@H](NC(=O)CN2CCN(CC(=O)O)CCN(CC(=O)O)CCN(CC(=O)O)CC2)C(=O)N[C@@H](CC(=O)O)C(=O)N[C@@H](CC2CCCCC2)C(=O)N[C@@H](Cc2ccccc2)C(=O)N[C@H](CO)C(=O)N[C@H](CCCNC(=N)N)C(=O)N[C@@H](Cc2ccc(O)cc2)C(=O)N[C@@H](CC(C)C)C(=O)N[C@@H](Cc2c[nH]c3ccccc23)C(=O)N[C@@H](CO)C(N)=O)cc1 [[^177Lu]Lu-uPAR-15, metal not drawn] : 1.6
Cc1ccc(CCCC(=O)NCCOCCOCCOCCOCCC(=O)NC[C@H](NC(=O)CN2CCN(CC(=O)O)CCN(CC(=O)O)CCN(CC(=O)O)CC2)C(=O)N[C@@H](CC(=O)O)C(=O)N[C@@H](CC2CCCCC2)C(=O)N[C@@H](Cc2ccccc2)C(=O)N[C@H](CO)C(=O)N[C@H](CCCNC(=N)N)C(=O)N[C@@H](Cc2ccc(O)cc2)C(=O)N[C@@H](CC(C)C)C(=O)N[C@@H](Cc2c[nH]c3ccccc23)C(=O)N[C@@H](CO)C(N)=O)cc1 [[^177Lu]Lu-uPAR-14, metal not drawn] : 2
Cc1ccc(CCCC(=O)NCCOCCOCCOCCOCCOCCC(=O)NCCCC[C@H](NC(=O)CN2CCN(CC(=O)O)CCN(CC(=O)O)CCN(CC(=O)O)CC2)C(=O)N[C@@H](CC(=O)O)C(=O)N[C@@H](CC2CCCCC2)C(=O)N[C@@H](Cc2ccccc2)C(=O)N[C@H](CO)C(=O)N[C@H](CCCNC(=N)N)C(=O)N[C@@H](Cc2ccc(O)cc2)C(=O)N[C@@H](CC(C)C)C(=O)N[C@@H](Cc2c[nH]c3ccccc23)C(=O)N[C@@H](CO)C(N)=O)cc1 [[^177Lu]Lu-uPAR-18, metal not drawn] : 1.2

// moving on: another record for tissue uptake at 4 h
Asked: I would be grateful if you could share the reported tissue uptake at 4 h for Cc1ccc(CCCC(=O)NCCOCCOCCOCCOCCC(=O)NCCCC[C@H](NC(=O)CC[C@H](C(=O)O)N2CCN(CC(=O)O)CCN(CC(=O)O)CCN(CC(=O)O)CC2)C(=O)N[C@@H](CC(=O)O)C(=O)N[C@@H](CC2CCCCC2)C(=O)N[C@@H](Cc2ccccc2)C(=O)N[C@H](CO)C(=O)N[C@H](CCCNC(=N)N)C(=O)N[C@@H](Cc2ccc(O)cc2)C(=O)N[C@@H](CC(C)C)C(=O)N[C@@H](Cc2c[nH]c3ccccc23)C(=O)N[C@@H](CO)C(N)=O)cc1 [[^177Lu]Lu-uPAR-17, metal not drawn] .
Given back: 1.7
